target_under_test: pancreatic lipase (Sus scrofa)
Construct: gene PNLIP
Sequence (P00591 whole entry): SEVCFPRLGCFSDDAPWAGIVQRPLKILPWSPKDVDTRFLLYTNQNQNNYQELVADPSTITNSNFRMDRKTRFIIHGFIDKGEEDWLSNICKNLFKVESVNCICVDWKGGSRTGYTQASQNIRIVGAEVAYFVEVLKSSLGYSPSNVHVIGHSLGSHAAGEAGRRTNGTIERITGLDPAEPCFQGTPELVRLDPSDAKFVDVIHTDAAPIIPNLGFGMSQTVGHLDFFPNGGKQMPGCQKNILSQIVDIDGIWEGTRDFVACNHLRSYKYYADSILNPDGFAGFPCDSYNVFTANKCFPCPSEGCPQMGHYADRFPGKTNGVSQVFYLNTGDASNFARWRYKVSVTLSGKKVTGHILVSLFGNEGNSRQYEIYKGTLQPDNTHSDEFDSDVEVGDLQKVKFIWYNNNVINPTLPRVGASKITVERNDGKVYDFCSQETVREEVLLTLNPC
procedure_summary: p-nitrophenyl butyrate hydrolysis by porcine pancreatic lipase (type II), absorbance at […] nm
Format: biochemical
reported_endpoint: IC50 (µM)
Numbers only here, please. The scale is µM.

Measured IC50, COc1cc(CCc2ccccc2)oc(=O)c1 [DDK, dihydro-5,6-dehydrokawain] : 36.5

// provenance: paper PMC6270905
